target: recombinant mouse NAPE-PLD (Mus musculus, UniProt Q8BH82); construct: hexahistidine (His6) (C); made in house; host or cells: E. coli; experiment: In vitro fluorescence NAPE-PLD activity assay (HTS/CRC) with recombinant mouse NAPE-PLD and PED-A1; assay type: biochemical; conditions: Table 1; maximum induced activity compared to basal (100%) activity
Threshold 200%. Max % bA (%) below it: t. Max % bA (%) at it or above: f.

Please review the entries below; each comes with its answer.
Cc1ccc2sc(NC(=O)C3CCN(S(=O)(=O)c4ccc(F)cc4)CC3)nc2c1C = t
Cc1ccc(S(=O)(=O)N2CCC(C(=O)Nc3nc4c(C)cc(C)cc4s3)CC2)cc1 = f
Cc1cccc2sc(NC(=O)C3CCN(S(=O)(=O)c4ccc(Cl)cc4)CC3)nc12 = t
Cc1ccc(C)c2sc(NC(=O)C3CCN(S(=O)(=O)c4ccc(F)cc4)CC3)nc12 = t
COc1ccc(S(=O)(=O)N2CCC(C(=O)Nc3nc4c(C)cccc4s3)CC2)cc1 = t
Cc1cccc2sc(NC(=O)C3CCN(S(=O)(=O)c4ccc(F)cc4)CC3)nc12 = t

Ask: Take the compound `Cc1ccc2nc(NC(=O)C3CCN(S(=O)(=O)c4ccc(Cl)cc4)CC3)sc2c1` and say whether its Max % bA (%) is less than 200%.
Result: t

Ask: Same for `Cc1cc2nc(NC(=O)C3CCN(S(=O)(=O)c4ccc(F)cc4)CC3)sc2cc1C`
Result: f

---

Target: recombinant mouse NAPE-PLD (Mus musculus)
Construct: hexahistidine (His6) (C); made in house; host or cells: E. coli
Sequence (Q8BH82 1-396): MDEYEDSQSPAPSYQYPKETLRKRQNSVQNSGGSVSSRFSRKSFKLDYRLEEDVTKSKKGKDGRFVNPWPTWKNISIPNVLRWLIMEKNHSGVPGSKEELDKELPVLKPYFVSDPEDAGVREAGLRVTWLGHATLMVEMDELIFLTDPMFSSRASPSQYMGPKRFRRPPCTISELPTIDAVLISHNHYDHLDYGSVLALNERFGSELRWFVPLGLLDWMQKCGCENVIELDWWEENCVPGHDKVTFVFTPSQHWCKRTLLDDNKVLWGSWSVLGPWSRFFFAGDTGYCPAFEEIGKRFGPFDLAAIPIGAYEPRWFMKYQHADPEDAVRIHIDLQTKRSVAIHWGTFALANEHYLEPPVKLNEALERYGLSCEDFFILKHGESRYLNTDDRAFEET
Experiment: In vitro fluorescence NAPE-PLD activity assay (HTS/CRC) with recombinant mouse NAPE-PLD and PED-A1
Type: biochemical
Conditions: Table 2; rNAPE-PLD activity assay; read-out: EC50
Procedure: Using the fluorogenic NAPE substrate, PED-A1, and recombinant mouse NAPE-PLD (rNAPE-PLD), an in vitro high-throughput (HTS) assay was conducted to screen ˜40,000 compounds for their ability to modulate NAPE-PLD activity. […] In vitro fluorescence NAPE-PLD activity assays using recombinant NAPE-PLD and either PED-A1 or flame-NAPE as fluorogenic substrate were performed as previously described except with small modifications as noted below. […]
parameter measured: pEC50
When answering, recall that pEC50 equals minus log10 of the concentration in mol/L, and write that number alone.

Solved entries:
Cc1ccc(S(=O)(=O)N2CCC(C(=O)Nc3nc4c(C)cc(C)cc4s3)CC2)cc1 = 6.72
Cc1cccc2sc(NC(=O)C3CCN(S(=O)(=O)c4cccnc4)CC3)nc12 [MRJ-058C] = 6.03
Cc1cccc2sc(NC(=O)C3CCN(S(=O)(=O)c4ccc(F)c(Cl)c4)CC3)nc12 [MRJ-058B] = 5.33

Now, please, on to the next compound.
Ask: May I ask what pEC50 has been recorded for `Cc1cc2nc(NC(=O)C3CCN(S(=O)(=O)c4ccc(F)cc4)CC3)sc2cc1C` ?
Result: 6.05
